Assay: DRUGMATRIX: Glutamate, AMPA radioligand binding (ligand: [3H] AMPA)
Format: cell membranes, Rattus norvegicus, Wistar, Cerebral cortex, Membrane
Conditions: Not Active = under 50% inhibition at 10 µM
attribute-measured: IC50

Cc1c(C)c2c(c(C)c1O)CCC(C)(COc1ccc(CC3SC(=O)NC3=O)cc1)O2 (stereo not drawn) [TROGLITAZONE]    Not Active
Cc1ccc(/N=C/N(C)/C=N/c2ccc(C)cc2C)c(C)c1 [AMITRAZ]    Not Active
CC(C)(C)NCC(O)c1cc(Cl)c(N)c(Cl)c1 (stereo not drawn) [CLENBUTEROL]    Not Active
Nc1c2c(nc3ccccc13)CCCC2 [TACRINE]    Not Active
O=c1oc2ccccc2c(O)c1Cc1c(O)c2ccccc2oc1=O [DICUMAROL]    Not Active

Enquiry: IC50 for CC(C)[C@H]1C(=O)N2CCC[C@H]2[C@]2(O)O[C@](NC(=O)[C@@H]3C=C4c5cccc6[nH]cc(c56)C[C@H]4N(C)C3)(C(C)C)C(=O)N12 [ERGOCORNINE] ?
Return: Not Active

Enquiry: IC50 for OCCN(CCO)c1nc(N2CCCCC2)c2nc(N(CCO)CCO)nc(N3CCCCC3)c2n1 [DIPYRIDAMOLE] ?
Return: Not Active

Enquiry: IC50 for `CC(=O)[C@@]1(O)CC[C@H]2[C@@H]3C[C@H](C)C4=CC(=O)CC[C@]4(C)[C@H]3CC[C@@]21C` ?
Return: Not Active

====

Biological target: UniProtKB P23975
Sequence (P23975 whole entry): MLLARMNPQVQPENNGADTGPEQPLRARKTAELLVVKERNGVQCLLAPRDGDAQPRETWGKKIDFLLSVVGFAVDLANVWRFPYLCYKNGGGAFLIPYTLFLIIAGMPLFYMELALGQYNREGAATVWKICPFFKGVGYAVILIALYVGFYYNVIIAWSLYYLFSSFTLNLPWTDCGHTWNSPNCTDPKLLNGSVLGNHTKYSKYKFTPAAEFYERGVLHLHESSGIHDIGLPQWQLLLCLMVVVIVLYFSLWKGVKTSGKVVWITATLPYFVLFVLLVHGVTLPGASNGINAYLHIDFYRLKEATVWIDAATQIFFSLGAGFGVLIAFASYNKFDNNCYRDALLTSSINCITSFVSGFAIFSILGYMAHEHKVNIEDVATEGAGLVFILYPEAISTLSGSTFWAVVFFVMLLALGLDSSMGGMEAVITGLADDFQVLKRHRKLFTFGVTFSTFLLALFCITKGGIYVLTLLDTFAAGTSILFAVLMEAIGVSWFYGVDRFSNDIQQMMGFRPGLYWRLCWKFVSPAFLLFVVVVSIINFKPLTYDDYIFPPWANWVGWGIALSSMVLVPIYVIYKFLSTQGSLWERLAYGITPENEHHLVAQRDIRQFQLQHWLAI
Assay: DRUGMATRIX: Norepinephrine Transporter radioligand binding (ligand: [125I] RTI-55)
Type: cell membranes, MDCK, Membrane
Details: Not Active = under 50% inhibition at 10 µM; read-out: IC50
attribute-measured: IC50
# do not omit the unit; it follows the number

Completed entries (count: 5):
C1CCC(C(CC2CCCCN2)C2CCCCC2)CC1 (stereo not given)    3290 nM
Nc1nc2ccc(OC(F)(F)F)cc2s1    1730 nM
Cc1ccc2cc3c(ccc4ccccc43)c3c2c1CC3    29700 nM
c1ccc(Nc2ccc(Nc3ccccc3)cc2)cc1    786 nM
CC/C(=C(\c1ccccc1)c1ccc(OCCN(C)C)cc1)c1ccccc1    1470 nM

Enquiry: IC50 for `Nc1c2c(nc3ccccc13)CCCC2` ?
Return: 517 nM

Enquiry: IC50 for `CN(Cc1ccc(C(C)(C)C)cc1)Cc1cccc2ccccc12` ?
Return: 3910 nM

Enquiry: IC50 for `CN(C)CCCN1c2ccccc2Sc2ccccc21` ?
Return: 13 nM

Enquiry: IC50 for `Cc1ccc(-c2cc(C(F)(F)F)nn2-c2ccc(S(N)(=O)=O)cc2)cc1` ?
Return: 7310 nM

Enquiry: IC50 for `O=c1ncn2nc(Sc3ccc(F)cc3F)ccc2c1-c1c(Cl)cccc1Cl` ?
Return: 20400 nM

====

Biological target: 5-hydroxytryptamine receptor 1A (Rattus norvegicus); further: in other assays of this panel Not Active means under 50% inhibition at 10 µM
Sequence (P19327 whole entry): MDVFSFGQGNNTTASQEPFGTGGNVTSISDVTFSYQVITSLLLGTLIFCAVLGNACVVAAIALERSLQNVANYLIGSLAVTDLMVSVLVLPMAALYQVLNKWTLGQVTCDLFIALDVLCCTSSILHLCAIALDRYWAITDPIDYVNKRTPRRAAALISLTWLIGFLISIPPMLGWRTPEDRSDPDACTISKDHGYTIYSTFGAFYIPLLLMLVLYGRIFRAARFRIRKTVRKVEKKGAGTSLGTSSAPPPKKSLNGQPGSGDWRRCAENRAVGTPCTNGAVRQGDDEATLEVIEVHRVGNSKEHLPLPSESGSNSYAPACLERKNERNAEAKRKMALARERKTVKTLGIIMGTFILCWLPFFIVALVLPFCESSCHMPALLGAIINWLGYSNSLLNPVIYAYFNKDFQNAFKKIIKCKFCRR
Format: cell membranes, CHO-K1, Membrane
Conditions: read-out: Ki
attribute-measured: pKi
Scale note: pKi = -log10(concentration in M).

CN1CCN(CCCN2c3ccccc3Sc3ccc(Cl)cc32)CC1    6.27
O=C(CCCN1CC=C(n2c(=O)[nH]c3ccccc32)CC1)c1ccc(F)cc1    6.86
CC[C@@H](CO)NC(=O)[C@@H]1C=C2c3cccc4[nH]cc(c34)C[C@H]2N(C)C1    8.63
CN(C)CCCN1c2ccccc2Sc2ccccc21    5.53

Enquiry: pKi for CC(C)(C)NCC(O)c1cc(Cl)c(N)c(Cl)c1 (stereo not given) ?
Return: 5.82

All figures here come from ChEMBL document CHEMBL1909046.
